# measurement-target: Receptor tyrosine-protein kinase erbB-4 (Homo sapiens);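 further: each value is a mean percent inhibition of ERBB4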
# details: at 1 µM
parameter-measured: inhibition (%)
Express it in %; write the number only.

// inhibition lookup, key: CS(=O)(=O)Nc1ccc(-c2cc(-c3ccccc3)cc(C(N)=O)c2N)cc1
11.9

// repeat for CCS(=O)(=O)c1ccc(OC)c(Nc2ncc(-c3cccc(C(C)=O)c3)o2)c1 and report
11.1

Another compound to check: Cc1cc(O)cc(C)c1/C=C/c1cncc(C(=O)OC(C)(C)C)c1
16.1

Field entry: O=C1Nc2ccccc2/C1=C1\CCc2cc(O)ccc21
13.7

Queued: CNC(=O)c1sc(-n2cnc3cc(OC)c(OC)cc32)cc1OCc1ccccc1C(F)(F)F
10.3

Continuing:
Query (compound): CNC(=O)c1cncc(/C=C/c2ccccc2C)c1 ; field requested: inhibition
14.8

Next record, please: COc1cc(N2CCN(C(C)C)CC2)ccc1Nc1nc(Nc2cccc3ncccc23)c2cc[nH]c2n1
5.51

Same read-out for CCCNc1cccc(-n2ncc3c(N/N=C/c4ccncc4)ncnc32)c1 ?
43

Another compound: OCCCNc1nccc(-c2c(-c3ccc(F)cc3)nn3cc(C(F)(F)F)ccc23)n1
14.4

// repeat for COc1cccc(Nc2nccc(-c3cnn4ncccc34)n2)c1 and report
3.05

Just for reference, ChEMBL document CHEMBL1961873 is where these values come from.
